Test system: ZR-75-1 (breast ductal carcinoma, Rb-positive)
Assay: Cellular proliferation assay (CellTiter-Glo), ZR-75-1
Assay type: cell-based
Conditions: Homo sapiens, ZR-75-1, 144 h, cell viability after six days, read-out: ZR75-1 Cellular EC50
MEASURED ATTRIBUTE: pEC50
Bear in mind: pEC50 is minus log10 of a mol/L concentration; give just that figure.

{"columns": ["MOLECULE", "pEC50"],
 "data": [
  ["CC(C)N1CCN(c2ccc(Nc3ncc4cc5n(c4n3)C3(CCCCC3)CNC5=O)nc2)CC1C (centres unmarked)", 7.18]
]}

Looking up "C[C@H](O)CN1CCN(c2ccc(Nc3ncc4cc5n(c4n3)C3(CCCCC3)CNC5=O)nc2)C[C@@H]1C" , I see its pEC50 listed as 7.14

Looking up "CN1CCN(c2ccc(Nc3ncc4cc5n(c4n3)C3(CCCCC3)CNC5=O)nc2)CC1(C)C" , I found its pEC50 recorded as 7.34

pEC50 reading for "CCN(CC)C1CCN(c2ccc(Nc3ncc4cc5n(c4n3)C3(CCCCC3)CNC5=O)nc2)CC1" : 7.42

Entry "CC(C)N1CCN(Cc2ccc(Nc3ncc4cc5n(c4n3)C3(CCCCC3)CNC5=O)nc2)CC1" — recorded pEC50 = 6.69

"CC(C)N1CCN(c2ccc(Nc3ncc4cc5n(c4n3)C3(CCCCC3)CNC5=O)nc2)CC1" has a reported pEC50 of 7.21

Per the record, "C[C@@H]1CN(c2ccc(Nc3ncc4cc5n(c4n3)C3(CCCCC3)CNC5=O)nc2)C[C@H](C)N1" has pEC50 of 7.37

In plain terms, "CN(C)C1CCN(c2ccc(Nc3ncc4cc5n(c4n3)C3(CCCC3)CNC5=O)nc2)CC1" has a documented pEC50 of 6.24

====

System: MCF7 (breast adenocarcinoma, Rb-positive)
Assay: Cellular proliferation assay (CellTiter-Glo), MCF7
Type: cell-based
Details: Homo sapiens, MCF7, 144 h, cell viability after six days
Description: Further cellular proliferation assays were conducted using the following cancer cell lines: MCF7 (breast adenocarcinoma—Rb-positive), ZR-75-1 (breast ductal carcinoma—Rb-positive), H69 (human small cell lung cancer—Rb-negative) cells, or A2058 (human metastatic melanoma cells—Rb-negative). […] Plates were read on BioTek (Winooski, Vermont) Syngergy2 multi-mode plate reader. […]
MEASURED ATTRIBUTE: EC50 (µM)
Field: numeric (µM). Do not append units.

// below: answered compounds
{"columns": ["COMPOUND", "TARGET DESC", "UNIT ABBREV", "MEASURED VALUE"],
 "data": [
  ["CC1(C)CN(c2ccc(Nc3ncc4cc5n(c4n3)C3(CCCCC3)CNC5=O)nc2)CCN1", "MCF7 (breast adenocarcinoma, Rb-positive)", "µM", 0.061],
  ["CC(C)C1CN(c2ccc(Nc3ncc4cc5n(c4n3)C3(CCCCC3)CNC5=O)nc2)CCN1 (stereo not drawn)", "MCF7 (breast adenocarcinoma, Rb-positive)", "µM", 0.053],
  ["CC(C)N1CCN(C(=O)c2ccc(Nc3ncc4cc5n(c4n3)C3(CCCCC3)CNC5=O)nc2)CC1", "MCF7 (breast adenocarcinoma, Rb-positive)", "µM", 0.094],
  ["C[C@@H]1CN(c2ccc(Nc3ncc4cc5n(c4n3)C3(CCCCC3)CNC5=O)nc2)CCN1", "MCF7 (breast adenocarcinoma, Rb-positive)", "µM", 0.05],
  ["CCN(CC)C1CCN(C2CCN(c3ccc(Nc4ncc5cc6n(c5n4)C4(CCCCC4)CNC6=O)nc3)CC2)C1 (stereo not drawn)", "MCF7 (breast adenocarcinoma, Rb-positive)", "µM", 0.072]
]}

Would you kindly look at the next entry?
Documented EC50 of "C[C@@H]1CN(c2ccc(Nc3ncc4cc5n(c4n3)C3(CCCCC3)CNC5=O)nc2)CCN1C[C@@H](C)O" : 0.07

====

Test system: A2058 (human metastatic melanoma cells, Rb-negative)
Experiment: Cellular proliferation assay (CellTiter-Glo), A2058
Assay type: cell-based
Conditions: A2058, 144 h, cell viability after six days
Experimental: Further cellular proliferation assays were conducted using the following cancer cell lines: MCF7 (breast adenocarcinoma—Rb-positive), ZR-75-1 (breast ductal carcinoma—Rb-positive), H69 (human small cell lung cancer—Rb-negative) cells, or A2058 (human metastatic melanoma cells—Rb-negative). […] Plates were read on BioTek (Winooski, Vermont) Syngergy2 multi-mode plate reader. […]
MEASURED ATTRIBUTE: EC50

Please review the following examples before continuing.
{"columns": ["MOLECULE", "MEASURED VALUE"],
 "data": [
  ["CC(C)N1CCN(c2ccc(Nc3ncc4cc5n(c4n3)C3(CCCCC3)CNC5=O)nc2)C[C@H]1C", "> 3000 nM"],
  ["CN1CCN(c2ccc(Nc3ncc4cc5n(c4n3)C3(CCCCC3)CNC5=O)nc2)CC1", "> 3000 nM"],
  ["CN(C)C1CCN(c2ccc(Nc3ncc4cc5n(c4n3)C3(CCCCC3)CNC5=O)nc2)CC1", "2670 nM"],
  ["C[C@@H]1CN(c2ccc(Nc3ncc4cc5n(c4n3)C3(CCCCC3)CNC5=O)nc2)CCN1C[C@@H](C)O", "> 3000 nM"],
  ["O=C1NCC2(CCCCC2)n2c1cc1cnc(Nc3ccc(N4CCC(N5CCOCC5)CC4)cn3)nc12", "> 3000 nM"]
]}

CCC(C)CN1CCN(c2ccc(Nc3ncc4cc5n(c4n3)C3(CCCC3)CNC5=O)nc2)CC1 (stereo not shown) yielded EC50 of > 3000 nM

// recorded EC50 for "C[C@@H](O)CN1CCN(c2ccc(Nc3ncc4cc5n(c4n3)C3(CCCCC3)CNC5=O)nc2)CC1" : > 3000 nM

Record "C[C@H]1CN(c2ccc(Nc3ncc4cc5n(c4n3)C3(CCCCC3)CNC5=O)nc2)CCN1C" . Reported EC50: 2630 nM

Item: CC1CN(c2ccc(Nc3ncc4cc5n(c4n3)C3(CCCCC3)CNC5=O)nc2)CCN1CC(C)(C)O (stereo not shown) | EC50: > 3000 nM

EC50 in this record for CCN(CC)C1CCN(c2ccc(Nc3ncc4cc5n(c4n3)C3(CCCCC3)CNC5=O)nc2)C1 (stereo not shown) : > 3000 nM

====

Reported IC50 values follow for various molecules
Target: CDK4/CyclinD1 (Homo sapiens)
Sequence (P11802 whole entry, species assumed): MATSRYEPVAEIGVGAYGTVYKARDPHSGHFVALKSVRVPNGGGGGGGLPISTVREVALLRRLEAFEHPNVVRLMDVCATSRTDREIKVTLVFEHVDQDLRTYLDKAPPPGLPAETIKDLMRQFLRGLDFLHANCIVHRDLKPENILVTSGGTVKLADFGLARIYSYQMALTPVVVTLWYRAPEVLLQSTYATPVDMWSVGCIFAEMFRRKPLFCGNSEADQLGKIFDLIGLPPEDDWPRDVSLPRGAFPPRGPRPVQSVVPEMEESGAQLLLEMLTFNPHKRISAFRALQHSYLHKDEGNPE
Sequence (P24385 whole entry partner, species assumed): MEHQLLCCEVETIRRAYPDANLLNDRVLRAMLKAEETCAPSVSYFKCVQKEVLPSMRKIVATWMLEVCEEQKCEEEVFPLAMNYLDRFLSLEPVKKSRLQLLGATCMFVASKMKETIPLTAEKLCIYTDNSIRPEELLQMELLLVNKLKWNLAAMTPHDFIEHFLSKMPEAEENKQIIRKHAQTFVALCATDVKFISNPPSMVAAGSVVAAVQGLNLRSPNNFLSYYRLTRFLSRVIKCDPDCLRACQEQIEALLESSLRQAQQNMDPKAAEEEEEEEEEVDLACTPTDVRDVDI
Test: CDK4/cyclinD1 kinase assay (Nanosyn, Caliper microfluidic kinase detection)
Format: biochemical
Conditions: Table 2; 12-point dose-response, ATP at Km (200 μM), 10 hr; read-out: CDK4/CycD1 IC50
Field: numeric (nM). Do not append units.

Worked set:
{"columns": ["MOLECULE", "TARGET DESC", "MEASURED ATTRIBUTE", "MEASURED VALUE"],
 "data": [
  ["CCN(CC)C1CCN(c2ccc(Nc3ncc4cc5n(c4n3)C3(CCCC3)CNC5=O)nc2)CC1", "CDK4/CyclinD1 (Homo sapiens)", "IC50", 3.2],
  ["CCN(CC)C1CCN(C2CCN(c3ccc(Nc4ncc5cc6n(c5n4)C4(CCCCC4)CNC6=O)nc3)CC2)C1 (centres unmarked)", "CDK4/CyclinD1 (Homo sapiens)", "IC50", 1.2],
  ["CC1CCN(C2CCN(c3ccc(Nc4ncc5cc6n(c5n4)C4(CCCCC4)CNC6=O)nc3)CC2)C1 (centres unmarked)", "CDK4/CyclinD1 (Homo sapiens)", "IC50", 1],
  ["C[C@H]1CN(c2ccc(Nc3ncc4cc5n(c4n3)C3(CCCCC3)CNC5=O)nc2)CCN1CC1CC1", "CDK4/CyclinD1 (Homo sapiens)", "IC50", 0.4],
  ["C[C@@H]1CN(c2ccc(Nc3ncc4cc5n(c4n3)C3(CCCCC3)CNC5=O)nc2)CCN1", "CDK4/CyclinD1 (Homo sapiens)", "IC50", 2.9],
  ["C[C@H](O)CN1CCN(c2ccc(Nc3ncc4cc5n(c4n3)C3(CCCCC3)CNC5=O)nc2)CC1", "CDK4/CyclinD1 (Homo sapiens)", "IC50", 4.2]
]}

response.value for "O=C1NCC2(CCCC2)n2c1cc1cnc(Nc3ccc(C(=O)N4CCN(CC5CC5)CC4)cn3)nc12" (field: IC50) = 2.4

The molecule listed as "C[C@H](O)CN1[C@H](C)CN(c2ccc(Nc3ncc4cc5n(c4n3)C3(CCCCC3)CNC5=O)nc2)C[C@@H]1C" has a reported IC50 of 3.2

====

Molecular target: CDK4/CyclinD1 (Homo sapiens)
Assay: CDK4/cyclinD1 kinase assay (Nanosyn, Caliper microfluidic kinase detection)
Assay type: biochemical
Conditions: Table 2; 12-point dose-response, ATP at Km (200 μM), 10 hr; read-out: CDK4/CycD1 IC50
MEASURED ATTRIBUTE: pIC50
// pIC50 is dimensionless: -log10 of concentration (M)

Check out these entries, answers already filled in.
{"columns": ["RECORD SMILES", "pIC50"],
 "data": [
  ["CN1CCN(c2ccc(Nc3ncc4cc5n(c4n3)C3(CCCCC3)CNC5=O)nc2)CC1(C)C", 9.05],
  ["CCN(CC)C1CCN(c2ccc(Nc3ncc4cc5n(c4n3)C3(CCCCC3)CNC5=O)nc2)CC1", 8.80]
]}

Here "O=C1NCC2(CCCCC2)n2c1cc1cnc(Nc3ccc(N4CCN(C5CCC5)CC4)cn3)nc12" was tested on CDK4/CyclinD1 (Homo sapiens), and its pIC50 came to 8.82
